Test system: HL-1
Assay: relative cell viability (CellTiter-Glo) vs DMSO control (% of DMSO control); higher = more viable cells
Conditions: oxygen condition: normoxia 72 h; 5000 nM
RECORDED_METRIC: relative cell viability

NC(=O)CC[C@H](N)C(=O)O :: 113
Cc1cn(-c2cc(NC(=O)c3ccc(C)c(Nc4nccc(-c5cccnc5)n4)c3)cc(C(F)(F)F)c2)cn1 :: 108
CC(C)NCC(O)c1ccc(NS(C)(=O)=O)cc1 (centres undefined) :: 104
O=c1oc2cc(O)ccc2s1 :: 106

====

System: HL-1
Assay: relative cell viability (CellTiter-Glo) vs DMSO control (% of DMSO control); higher = more viable cells
Conditions: oxygen condition: hypoxia 48 h (1% O2) + reoxygenation 24 h; 200 nM
Structures can show the parent of a compound that is named as a salt.
Listed here: items and their measured relative cell viability.
RECORDED_METRIC: relative cell viability

COc1ccc(CC(C)NCC(O)c2ccc(O)c(NC=O)c2)cc1 (stereo not drawn) [Formoterol hemifumarate] :: 98.7
CN(C)C(=N)NC(=N)N [Metformin hydrochloride] :: 104
COc1ccc(CN2CCN(C(c3ccc(F)cc3)c3ccc(F)cc3)CC2)c(OC)c1OC [Lomerizine HCl] :: 105
CNCCC(Oc1ccc(C(F)(F)F)cc1)c1ccccc1 (stereo not drawn) [Fluoxetine HCl] :: 109
C[C@]12C=CC(=O)N[C@@H]1CC[C@@H]1[C@@H]2CC[C@]2(C)[C@@H](C(=O)Nc3cc(C(F)(F)F)ccc3C(F)(F)F)CC[C@@H]12 [Dutasteride] :: 106
N=C(N)NCCN1CCCCCCC1 [Guanethidine Sulfate] :: 101
CNS(=O)(=O)Cc1ccc2[nH]cc(CCN(C)C)c2c1 [Sumatriptan succinate] :: 109
NCCCC(O)(P(=O)(O)O)P(=O)(O)O [Alendronate] :: 102
COC(=O)N[C@H](C(=O)N[C@@H](Cc1ccccc1)[C@@H](O)CN(Cc1ccc(-c2ccccn2)cc1)NC(=O)[C@@H](NC(=O)OC)C(C)(C)C)C(C)(C)C [Atazanavir sulfate] :: 101
COc1cc2nc(N3CCN(C(=O)C4COc5ccccc5O4)CC3)nc(N)c2cc1OC (stereo not drawn) [Doxazosin mesylate] :: 107
S=c1[nH]cnc2nc[nH]c12 :: 104
CN(C)CCN(Cc1ccccc1)c1ccccn1 [Tripelennamine HCl] :: 87.6
O=c1c(-c2ccc(O)cc2)coc2cc(O)cc(O)c12 :: 106
CNC(=O)c1cc(Oc2ccc(NC(=O)Nc3ccc(Cl)c(C(F)(F)F)c3)cc2)ccn1 :: 105
Nc1nc(Cl)nc2c1ncn2[C@@H]1O[C@H](CO)[C@@H](O)[C@@H]1F :: 69.7
O=C(O)c1cccnc1 :: 107
CCCC(CCC)C(=O)O [Divalproex sodium] :: 109
O=C1CCc2ccc(OCCCCN3CCN(c4cccc(Cl)c4Cl)CC3)cc2N1 :: 104
CN(C)CCC(c1ccccc1)c1ccccn1 (stereo not drawn) [Pheniramine Maleate] :: 103
CC[C@]1(O)C[C@H]2CN(CCc3c([nH]c4ccccc34)[C@@](C(=O)OC)(c3cc4c(cc3OC)N(C=O)[C@H]3[C@@](O)(C(=O)OC)[C@H](OC(C)=O)[C@]5(CC)C=CCN6CC[C@]43[C@@H]65)C2)C1 :: 40.4
O=C1C(O)=C([C@H]2CC[C@H](c3ccc(Cl)cc3)CC2)C(=O)c2ccccc21 :: 103
CCN[C@H]1CN(CCCOC)S(=O)(=O)c2sc(S(N)(=O)=O)cc21 [Brinzolamide] :: 84.5
CNC(=O)c1ccc(N2C(=S)N(c3ccc(C#N)c(C(F)(F)F)c3)C(=O)C2(C)C)cc1F :: 103

====

relative cell viability reference
Test system: HL-1
Test: relative cell viability (CellTiter-Glo) vs DMSO control (% of DMSO control); higher = more viable cells
Settings: oxygen condition: hypoxia 48 h (1% O2) + reoxygenation 24 h; 200 nM
Structures can show the parent of a compound that is named as a salt.
RECORDED_METRIC: relative cell viability

C=C(c1ccc(C(=O)O)cc1)c1cc2c(cc1C)C(C)(C)CCC2(C)C [Bexarotene] :: 102
CCOC(=O)OC(C)OC1=C(C(=O)Nc2ccccn2)N(C)S(=O)(=O)c2ccccc21 (stereo not drawn) [Ampiroxicam] :: 102
Cc1cccc(C)c1OCC(C)N (stereo not drawn) [Mexiletine HCl] :: 105
CN1CCN(CCCN2c3ccccc3Sc3ccc(Cl)cc32)CC1 [Prochlorperazine Dimaleate] :: 111
CCCCCN(C)CCC(O)(P(=O)(O)O)P(=O)(O)O [Ibandronate sodium] :: 95.3
Nc1nnc(-c2cccc(Cl)c2Cl)c(N)n1 [Lamotrigine] :: 102
CC(=O)O[C@H]1C(=O)[C@@]2(C)[C@H]([C@H](OC(=O)c3ccccc3)[C@]3(O)C[C@H](OC(=O)[C@H](O)[C@@H](NC(=O)c4ccccc4)c4ccccc4)C(C)=C1C3(C)C)[C@]1(OC(C)=O)CO[C@@H]1C[C@@H]2O [Paclitaxel] :: 42.8
CN(C)CC/C=C1/c2ccccc2COc2ccc(CC(=O)O)cc21 [Olopatadine hydrochloride] :: 92.6
C#CCC(Cc1cnc2nc(N)nc(N)c2n1)c1ccc(C(=O)N[C@@H](CCC(=O)O)C(=O)O)cc1 (stereo partly drawn) [Pralatrexate] :: 43
CN(Cc1cc(Br)cc(Br)c1N)C1CCCCC1 [Bromhexine HCl] :: 96.2
Cc1ccc(C(=O)Nc2ccc(CN3CCN(C)CC3)c(C(F)(F)F)c2)cc1C#Cc1cnc2cccnn12 [Ponatinib] :: 108
Cc1cccc(Nc2ccncc2S(=O)(=O)NC(=O)NC(C)C)c1 [Torsemide] :: 102
C=C[C@H]1CN2CC[C@H]1C[C@H]2[C@H](O)c1ccnc2ccc(OC)cc12 [Quinine hydrochloride dihydrate] :: 104
O=C(CCCN1CCC(O)(c2ccc(Cl)cc2)CC1)c1ccc(F)cc1 [Haloperidol] :: 99.4
CCCCCCCCOc1ccccc1C(=O)Nc1ccc(C(=O)OCC[N+](C)(CC)CC)cc1 [Otilonium Bromide] :: 107
CC[C@@H](CO)NCCN[C@@H](CC)CO [Ethambutol HCl] :: 93.4
CC(Oc1c(Cl)cccc1Cl)C1=NCCN1 (stereo not drawn) [Lofexidine HCl] :: 101
C[C@H](CCC(=O)O)[C@H]1CC[C@H]2[C@@H]3[C@@H](O)C[C@@H]4C[C@H](O)CC[C@]4(C)[C@H]3CC[C@]12C [Ursodiol] :: 106
CC(C)NCC(O)COc1ccc(COCCOC(C)C)cc1 (stereo not drawn) [Bisoprolol] :: 103
NS(=O)(=O)c1cc2c(cc1Cl)NCNS2(=O)=O [Hydrochlorothiazide] :: 106
C#C[C@]1(OC(C)=O)CC[C@H]2[C@@H]3CCC4=C[C@@H](OC(C)=O)CC[C@@H]4[C@H]3CC[C@@]21C [Ethynodiol diacetate] :: 103
CN(C)[C@@H](CCOc1cccc2ccccc12)c1ccccc1 [Dapoxetine hydrochloride] :: 102
Cc1cc(N)c2ccccc2[n+]1CCCCCCCCCC[n+]1c(C)cc(N)c2ccccc21 [Dequalinium chloride] :: 104

====

Each entry below carries its recorded relative cell viability.
Tested on: HL-1
Assay: relative cell viability (CellTiter-Glo) vs DMSO control (% of DMSO control); higher = more viable cells
Settings: oxygen condition: hypoxia 48 h (1% O2) + reoxygenation 24 h; 1000 nM
Counter-ions that a name gives are not always drawn.
RECORDED_METRIC: relative cell viability

CC(C)(C(=O)O)c1ccc(C(O)CCCN2CCC(C(O)(c3ccccc3)c3ccccc3)CC2)cc1 (centres undefined) [Fexofenadine HCl] :: 99.8
CCCCCCCN(CC)CCCC(O)c1ccc(NS(C)(=O)=O)cc1 (centres undefined) [Ibutilide fumarate] :: 98.8
CCN1CC(CCN2CCOCC2)C(c2ccccc2)(c2ccccc2)C1=O (centres undefined) [Doxapram HCl] :: 100
COc1ccc(CN(CCN(C)C)c2ccccn2)cc1 [Pyrilamine Maleate] :: 101

====

Reported relative cell viability values for the following compounds.
Tested on: HL-1
Assay: relative cell viability (CellTiter-Glo) vs DMSO control (% of DMSO control); higher = more viable cells
Conditions: oxygen condition: hypoxia 48 h (1% O2) + reoxygenation 24 h; 40 nM
RECORDED_METRIC: relative cell viability

CCCCC1=NC2(CCCC2)C(=O)N1Cc1ccc(-c2ccccc2-c2nnn[nH]2)cc1 :: 103
COc1ccc2c(c1)C(=O)N(CCc1ccc(S(=O)(=O)NC(=O)NC3CCCCC3)cc1)C(=O)C2(C)C :: 97.7
O=C(O)Cc1ccccc1Nc1c(Cl)cccc1Cl [Diclofenac] :: 97.6
O=C1CCc2ccc(OCCCCN3CCN(c4cccc(Cl)c4Cl)CC3)cc2N1 :: 98.7

====

relative cell viability: recorded values
Tested on: HL-1
Experiment: relative cell viability (CellTiter-Glo) vs DMSO control (% of DMSO control); higher = more viable cells
Details: oxygen condition: normoxia 72 h; 5000 nM
Where a name gives a salt, the structure may show the parent alone.
RECORDED_METRIC: relative cell viability

NCCC(O)(P(=O)(O)O)P(=O)(O)O [Pamidronate Disodium] :: 105
CCOC(=O)[C@H](CCc1ccccc1)N[C@@H](C)C(=O)N1[C@H](C(=O)O)C[C@@H]2CCC[C@@H]21 [Ramipril] :: 116
Cc1ccc(NC(=O)c2ccc(CN3CCN(C)CC3)cc2)cc1Nc1nccc(-c2cccnc2)n1 [Imatinib Mesylate] :: 117
O=C(O)C[C@H](O)C[C@H](O)/C=C/c1c(C2CC2)nc2ccccc2c1-c1ccc(F)cc1 [Pitavastatin calcium] :: 4.53
CN(C)CCN(Cc1ccccc1)c1ccccn1 [Tripelennamine HCl] :: 105
CNC1CCCN(c2c(F)cc3c(=O)c(C(=O)O)cn(C4CC4)c3c2OC)C1 (centres undefined) [Balofloxacin] :: 107
O=C(O)c1cn(C2CC2)c2cc(N3CCNCC3)c(F)cc2c1=O [Ciprofloxacin] :: 121
CN1C2CCCC1CC(NC(=O)c1nn(C)c3ccccc13)C2 (centres undefined) [Granisetron HCl] :: 102
COc1cc2nc(N(C)CCCNC(=O)C3CCCO3)nc(N)c2cc1OC (centres undefined) [Alfuzosin hydrochloride] :: 112
